These entries and their values trace back to paper PMC4336329.

# assayedSystem: human ether-à-go-go-related gene (hERG) potassium channel (human, UniProt Q12809);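 also: peak tail current of the secondary pulse compared with the same well before compound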
# Sequence (Q12809 whole entry, looked up): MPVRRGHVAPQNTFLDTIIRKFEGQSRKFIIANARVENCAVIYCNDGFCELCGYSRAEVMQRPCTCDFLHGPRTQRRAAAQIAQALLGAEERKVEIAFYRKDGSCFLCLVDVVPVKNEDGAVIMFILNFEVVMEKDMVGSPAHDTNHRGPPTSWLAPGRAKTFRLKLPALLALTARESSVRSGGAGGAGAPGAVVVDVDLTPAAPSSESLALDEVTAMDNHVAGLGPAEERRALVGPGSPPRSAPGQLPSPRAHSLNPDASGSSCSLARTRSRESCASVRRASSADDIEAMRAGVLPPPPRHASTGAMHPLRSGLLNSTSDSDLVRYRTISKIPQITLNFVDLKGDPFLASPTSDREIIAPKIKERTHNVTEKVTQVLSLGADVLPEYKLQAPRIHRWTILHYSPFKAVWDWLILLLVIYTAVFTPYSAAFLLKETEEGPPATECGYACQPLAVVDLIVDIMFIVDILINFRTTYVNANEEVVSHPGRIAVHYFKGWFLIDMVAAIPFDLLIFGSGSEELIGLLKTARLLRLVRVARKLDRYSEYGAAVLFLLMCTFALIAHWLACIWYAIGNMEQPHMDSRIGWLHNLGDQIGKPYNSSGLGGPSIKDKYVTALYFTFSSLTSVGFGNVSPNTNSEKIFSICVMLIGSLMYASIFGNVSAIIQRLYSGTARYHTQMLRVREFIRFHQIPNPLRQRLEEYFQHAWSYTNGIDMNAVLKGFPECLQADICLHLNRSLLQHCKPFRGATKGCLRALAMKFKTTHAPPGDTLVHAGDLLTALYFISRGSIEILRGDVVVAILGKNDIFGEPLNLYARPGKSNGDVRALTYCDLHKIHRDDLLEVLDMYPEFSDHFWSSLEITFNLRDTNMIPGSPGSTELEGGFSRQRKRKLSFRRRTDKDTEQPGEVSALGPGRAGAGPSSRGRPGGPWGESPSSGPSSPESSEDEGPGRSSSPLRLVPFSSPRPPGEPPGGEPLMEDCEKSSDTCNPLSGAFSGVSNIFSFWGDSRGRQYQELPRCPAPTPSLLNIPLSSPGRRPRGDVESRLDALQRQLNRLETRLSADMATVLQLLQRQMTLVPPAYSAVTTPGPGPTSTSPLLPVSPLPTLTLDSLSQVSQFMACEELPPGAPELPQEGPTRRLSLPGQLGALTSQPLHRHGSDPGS
# protocolSummary: primary screen, population patch clamp on CHO cells stably expressing hERG; higher = less effect of the substance
Hit rate of the full screen: of about 310,000 compounds, about 14,000 (4.5%) showed an effect of 50% or more. Effects have a minus sign here. For the sample, strong results were picked, then their nearest neighbours and some compounds at random.
reportedEndpoint: hERG current change (%, negative = inhibition) at 10uM (%)
Kindly answer with a numeric value in %, unit omitted.

Can you look up the measured hERG current change (%, negative = inhibition) at 10uM of CCOc1ccc(-n2c(-c3ccc(Br)cc3)c[n+]3c2CCCCC3)cc1.[Br-] for me?
-77.7

Now consider Cl.OC(COCc1ccc(Cl)cc1)CN1CCc2ccccc2C1 (centres unmarked) .
-70.4

// next record OC(COCc1ccc(Cl)cc1)CN1CCN(CC(O)COCc2ccc(Cl)cc2)CC1 (centres unmarked)
-75.2

// next record CCOC(=O)c1c(CN(CC)CC)n(C)c2cc(Br)c(O)cc12.Cl
-73.6

Record: CCOC(=O)C1CCN(CC(O)COCc2ccccc2)CC1.O=C(O)C(=O)O (centres unmarked)
-31.1

And the next one, CCOc1ccc(-c2c(C)n(-c3ccc(OCC)cc3)c3[n+]2CCCCC3)cc1.[O-][Cl+3]([O-])([O-])[O-] ?
-77.7

Can you check O=C(O)C(=O)O.OC(COCc1ccc(Cl)cc1)CN1CC=C(c2ccccc2)CC1 (centres unmarked) next?
-77.2

Try this compound next: COc1ccc(C(=O)/C=C/c2cccc(OCc3ccccc3)c2)cc1CSCC(=O)O
7.09

Same for CCOC(=O)c1c(CS(=O)(=O)c2ccccc2)n(C)c2cc(Br)c(O)cc12
5.4

What about CCOC(=O)c1c(CNc2ccncc2)n(C)c2cc(Br)c(O)cc12.Cl ?
18.8

Then this compound: CCOC(=O)c1c(CN2CCN(c3ccccc3)CC2)oc2cc(Br)c(O)cc12.Cl
14.3

Please do the same for CCOC(=O)c1c(CN2CCN(CC#N)CC2)n(C)c2cc(Br)c(OC)cc12 as well.
10.9

// same read-out, input: Cl.OC(COCc1ccc(Cl)cc1)CN1CCCCC1 (centres unmarked)
-35.8

CCOc1ccc(-c2c(C)n([O-])c3c([n+]2=O)CCCC3)cc1 ?
-1.2

Also, OC(CN1CC=C(c2ccccc2)CC1)c1ccccc1 (centres unmarked) please.
-33

Can you handle CCOC(=O)c1c(-c2ccccc2)oc2cc(Br)c(O)cc12 next?
3.65

// query: CCOC(=O)c1c(CNCCN(CC)CC)n(C)c2cc(Br)c(OC)cc12.Cl
-68.5

And what about the compound CCOC(=O)c1c(C)n(C)c2cc(Br)c(OC)cc12 ?
15.6

Queued: COCCn1c(SCC(=O)N(C)c2c(N)n(Cc3ccccc3)c(=O)[nH]c2=O)nnc1-c1cccc(C)c1
24.7

Also check CCOC(=O)c1c(CN2CCN(CCO)CC2)n(C)c2cc(Br)c(OC)cc12
-11.3

---

# assayedSystem: human ether-à-go-go-related gene (hERG) potassium channel (human);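 also: peak tail current of the secondary pulse compared with the same well before compound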
# protocolSummary: primary screen, population patch clamp on CHO cells stably expressing hERG; higher = less effect of the substance
The campaign covered roughly 310,000 compounds. About 14,000 (4.5%) showed an effect of 50% or more. Effects have a minus sign here. Shown is part of a subset that was picked to be rich in strong results.
reportedEndpoint: hERG current change (%, negative = inhibition) at 10uM (%)
Lab book: enter the figure in %, no units written.

What value of hERG current change (%, negative = inhibition) at 10uM has been reported for the following compound? COc1ccc(NC(=O)c2ccccc2CC[N+](=O)[O-])cc1
9.51

Same again, this time with COc1cc(C(C)=O)ccc1OCC(O)CN1CCN(S(=O)(=O)c2ccccc2)CC1 (stereo not drawn)
-11.5

// same read-out, input: COc1cc(C(C)=O)ccc1OCC(O)CN1CCN(c2ccccn2)CC1 (stereo not drawn)
-9.62

Proceed to CC(=O)Nc1ccc(Oc2cc(C#N)c(C#N)cc2N2CCOCC2)cc1
-16.9

What do you have for Cc1cc(-n2nc(C)cc2C)n2ncc(-c3ccccc3)c2n1 ?
16.2

Please do the same for O=[N+]([O-])C(C1CCS(=O)(=O)C1)C1CCS(=O)(=O)C1 (stereo not drawn) as well.
11.9

Field entry: CCOc1ccc(C2N(c3ccc(OC)cc3)C(=O)C3CCCN32)cc1OC (stereo not drawn)
-3.49

Same lookup for CC(=O)c1cccc(N/C=C\c2nnnn2-c2ccc(F)cc2)c1 , please.
0.338

Next entry: O=C(O/N=C1\CCCc2ccccc21)C1CC1
14.4

Check COc1cc2c(cc1OC)C(C)N(S(=O)(=O)c1cccs1)CC2 (stereo not drawn) too.
-12.9

Another: COc1cc(C(C)=O)ccc1OCC(O)CN1CCN(c2ccc(C)cc2C)CC1 (stereo not drawn)
-58.3

Then this compound: CCOc1ccc(NCc2nnc(SCC(=O)Nc3cc(C)on3)n2-c2ccc(OC)cc2)cc1
-4.02

Now give it for Cc1c(CCO)c(=O)[nH]n1C(=O)c1c(F)cccc1F too.
-1.76

And for CCn1c(CSc2nc3ccccc3s2)nnc1SCC(=O)c1ccc(O)cc1O ?
12.2

How about this compound: O=C1CCN(Cc2cccnc2)CCN1[C@H](CO)c1ccccc1
16

Also COc1cc(C(C)=O)ccc1OCC(O)CN1CCN(c2c(C)cccc2C)CC1 (stereo not drawn) , if possible.
-60.3

// same read-out, input: COc1cc(C(C)=O)ccc1OCC(O)CN1CCN(c2ccccc2)CC1 (stereo not drawn)
-31.5

Entry to check: COC(=O)CCCC[C@@H]1SC[C@@H](NC(=O)OC)[C@@H]1NC(=O)OC
5.49

Another compound to check: COC(=O)C1=C(N)Oc2cc(C)n(Cc3cccnc3)c(=O)c2C1c1ccc(OC)c(OC)c1 (stereo not drawn)
-19

Please do the same for COc1cc(C(C)=O)ccc1OCC(O)CN1CCN(c2ccc(C)c(C)c2)CC1 (stereo not drawn) as well.
-39.6

Another: COc1ccc(CCCC(=O)Nc2cc(C)ccc2OC)cc1
-14.2
